- Assay target: human α2C‐adrenoceptor (Homo sapiens, UniProt P18825)
- Sequence (P18825 1-462): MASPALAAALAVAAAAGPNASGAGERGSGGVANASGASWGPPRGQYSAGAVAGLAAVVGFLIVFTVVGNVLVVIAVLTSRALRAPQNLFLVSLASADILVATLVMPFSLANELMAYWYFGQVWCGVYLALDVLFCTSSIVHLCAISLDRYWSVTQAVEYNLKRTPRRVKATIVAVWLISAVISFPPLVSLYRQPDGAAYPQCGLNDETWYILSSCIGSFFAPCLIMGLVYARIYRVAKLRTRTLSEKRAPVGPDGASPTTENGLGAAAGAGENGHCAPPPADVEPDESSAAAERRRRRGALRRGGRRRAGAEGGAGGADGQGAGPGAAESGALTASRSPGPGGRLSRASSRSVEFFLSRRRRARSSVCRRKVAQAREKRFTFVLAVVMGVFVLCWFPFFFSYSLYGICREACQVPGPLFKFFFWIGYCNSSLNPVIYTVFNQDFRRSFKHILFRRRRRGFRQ
- Experimental details: ERK1/2‐phosphorylation in CHO‐α2C cells
- Type: cell-based
- Parameters: expressed in transfected cells; host or cells: CHO-K1 with CRE-SPAP reporter
- Applied conditions: CHO‐α2C cells; given as negative log EC50, mean ± SEM; read-out: Log EC50, ERK1/2‐phosphorylation (converted)

Compound | EC50 [µM]
COc1ccc(OC)c(C(O)C(C)N)c1 (stereo not shown) [Methoxamine] | 2.34
CCNCC(O)c1cccc(O)c1 (stereo not shown) [Etilefrine] | 3.16
CCC1(c2cnc[nH]2)Cc2ccccc2C1 [Atipamezole] | 0.00832
NCC(O)c1ccc(O)cc1 (stereo not shown) [Octopamine] | 7.76
